- system-tested: human TLR7 (Homo sapiens)
- Construct: host or cells: HEK-Blue cells
- Sequence (Q9NYK1 27-1049): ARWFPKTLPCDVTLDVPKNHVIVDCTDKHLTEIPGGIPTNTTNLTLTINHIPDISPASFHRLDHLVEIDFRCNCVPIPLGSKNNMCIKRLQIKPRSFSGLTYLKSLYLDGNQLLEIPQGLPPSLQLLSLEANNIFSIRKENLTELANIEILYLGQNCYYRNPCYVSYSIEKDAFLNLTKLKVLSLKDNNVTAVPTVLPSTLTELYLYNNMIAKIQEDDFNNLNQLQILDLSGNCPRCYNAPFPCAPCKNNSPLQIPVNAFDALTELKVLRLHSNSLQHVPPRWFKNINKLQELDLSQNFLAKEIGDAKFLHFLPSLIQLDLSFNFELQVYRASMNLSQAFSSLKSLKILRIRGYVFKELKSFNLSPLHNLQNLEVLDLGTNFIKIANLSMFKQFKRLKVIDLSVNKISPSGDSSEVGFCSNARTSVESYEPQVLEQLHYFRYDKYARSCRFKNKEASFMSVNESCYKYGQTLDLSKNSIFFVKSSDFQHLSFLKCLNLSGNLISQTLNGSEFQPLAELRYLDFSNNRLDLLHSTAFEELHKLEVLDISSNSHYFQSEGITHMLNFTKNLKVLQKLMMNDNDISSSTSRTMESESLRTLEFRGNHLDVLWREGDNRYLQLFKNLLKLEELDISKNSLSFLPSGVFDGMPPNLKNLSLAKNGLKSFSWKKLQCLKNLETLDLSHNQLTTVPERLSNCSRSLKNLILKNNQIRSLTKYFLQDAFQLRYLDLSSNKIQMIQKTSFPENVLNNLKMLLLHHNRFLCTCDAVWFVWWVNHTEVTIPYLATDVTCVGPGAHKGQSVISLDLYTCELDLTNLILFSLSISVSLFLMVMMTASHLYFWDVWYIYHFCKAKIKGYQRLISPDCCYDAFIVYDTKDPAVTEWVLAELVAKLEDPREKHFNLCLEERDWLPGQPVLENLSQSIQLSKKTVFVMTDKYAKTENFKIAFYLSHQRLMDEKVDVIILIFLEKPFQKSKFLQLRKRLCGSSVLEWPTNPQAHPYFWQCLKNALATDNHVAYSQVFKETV
- assay-remarks: TLR7 inhibition reporter assay (HEK-Blue cells, SEAP reporter, gardiquimod stimulation)
- Format: cell-based
- protocol-conditions: HEK-Blue cells overexpressing human TLR7, SEAP reporter, gardiquimod 7.5 μM
quantity-kind: IC50 (nM)

Example cases with answers are listed next.
>>> measured_number("Cc1c(-c2[nH]c3ccc(CC4CCCN4CCS(C)(=O)=O)cc3c2C(C)C)cn2cnnc2c1C (stereo not shown)")
49
>>> measured_number("CN[C@H](C)C(=O)N1CCCC(c2ccc3[nH]c(-c4cc(C)nc(C)c4)c(C(C)C)c3c2)C1 (stereo partly shown)")
5
>>> measured_number("Cc1c(-c2[nH]c3ccc(C4CCC(N(C)C)CC4)cc3c2C(C)C)cn2ncnc2c1C (stereo not shown) [Example 105]")
0.75

P. COc1cc(-c2[nH]c3ccc(CC4CN(CCS(C)(=O)=O)C4)cc3c2C(C)C)cn2ncnc12
Q. Cc1cc(-c2[nH]c3ccc(CCN4CCCC4)cc3c2C(C)C)cn(C)c1=O
Please compare: P and Q . Report which one has the smaller IC50 value. Respond using the label that marks the chosen record.
P
(P: 2 nM, Q: 35 nM)

a. Cc1c(-c2[nH]c3ccc(C4CC5CN(CCS(C)(=O)=O)CC5C4)cc3c2C(C)C)cn2ncnc2c1C (stereo not shown)
b. Cc1cc(-c2[nH]c3ccc(C4CCC(NC5(C)COC5)CC4)cc3c2C(C)C)cn2ncnc12 (single isomer, unassigned) [Example 46]
Of a and b , whose reported IC50 is the larger number? Respond using the label that marks the chosen record.
a
(a: 1 nM, b: 0.1 nM)

====

- system-tested: human TLR8 (Homo sapiens, UniProt Q9NR97)
- assay-remarks: TLR8 inhibition reporter assay (HEK-Blue cells, SEAP reporter, R848 stimulation)
- protocol-conditions: HEK-Blue cells overexpressing human TLR8, SEAP reporter, R848 15.9 μM
- Excerpt: TLR7/8/9 Inhibition Reporter Assays HEK-Blue™-cells (Invivogen) overexpressing human TLR7, TLR8 or TLR9 receptors were used for screening inhibitors of these receptors using an inducible SEAP (secreted embryonic alkaline phosphatase) reporter gene under the control of the IFN-β minimal promoter fused to five NF-κB and AP-1-binding sites. […]
pIC50: −log10 of the molar value.
quantity-kind: pIC50

>>> measured_number("COc1cc(-c2[nH]c3ccc(C4CCCN(C(=O)CN(C)C)C4)cc3c2C(C)C)cn2ncnc12 (stereo not shown) [Example 191]")
8.59
>>> measured_number("COc1cc(-c2[nH]c3ccc(C4CCCN(C(=O)C5CCN(C)CC5)C4)cc3c2C(C)C)cn2ncnc12 (stereo not shown)")
7.64
>>> measured_number("CC(C)c1c(-c2ccnc3[nH]ncc23)[nH]c2ccc(C3CCC(OC4CCNCC4)CC3)cc12 (stereo not shown)")
7.64

1. COc1cc(-c2[nH]c3ccc(C4CCC(N(C)C(C)C)C4)cc3c2C(C)C)cn2ncnc12 (single isomer, unassigned) [Example 277]
2. COc1ccc(-c2[nH]c3ccc(C4CCC(N)CC4)cc3c2C(C)C)cc1OC (stereo not shown)
Of 1 and 2 , whose reported pIC50 is the larger number? Respond using the label that marks the chosen record.
1

1. Cc1cc(-c2[nH]c3ccc(C4CCCN(C(=O)[C@@H]5CCN5)C4)cc3c2C(C)C)cc(C)n1 (stereo partly shown) [Example 220]
2. Cc1c(-c2[nH]c3ccc(C4CCC(N(C)C)CC4)cc3c2C(C)C)cn2ncnc2c1C (stereo not shown) [Example 105]
Please compare: 1 and 2 . Report which one has the smaller pIC50 value. Respond using the label that marks the chosen record.
1
(1: 7.96, 2: 8.74)

====

- system-tested: UniProt:Q9NR97
- Sequence (Q9NR97 27-1041): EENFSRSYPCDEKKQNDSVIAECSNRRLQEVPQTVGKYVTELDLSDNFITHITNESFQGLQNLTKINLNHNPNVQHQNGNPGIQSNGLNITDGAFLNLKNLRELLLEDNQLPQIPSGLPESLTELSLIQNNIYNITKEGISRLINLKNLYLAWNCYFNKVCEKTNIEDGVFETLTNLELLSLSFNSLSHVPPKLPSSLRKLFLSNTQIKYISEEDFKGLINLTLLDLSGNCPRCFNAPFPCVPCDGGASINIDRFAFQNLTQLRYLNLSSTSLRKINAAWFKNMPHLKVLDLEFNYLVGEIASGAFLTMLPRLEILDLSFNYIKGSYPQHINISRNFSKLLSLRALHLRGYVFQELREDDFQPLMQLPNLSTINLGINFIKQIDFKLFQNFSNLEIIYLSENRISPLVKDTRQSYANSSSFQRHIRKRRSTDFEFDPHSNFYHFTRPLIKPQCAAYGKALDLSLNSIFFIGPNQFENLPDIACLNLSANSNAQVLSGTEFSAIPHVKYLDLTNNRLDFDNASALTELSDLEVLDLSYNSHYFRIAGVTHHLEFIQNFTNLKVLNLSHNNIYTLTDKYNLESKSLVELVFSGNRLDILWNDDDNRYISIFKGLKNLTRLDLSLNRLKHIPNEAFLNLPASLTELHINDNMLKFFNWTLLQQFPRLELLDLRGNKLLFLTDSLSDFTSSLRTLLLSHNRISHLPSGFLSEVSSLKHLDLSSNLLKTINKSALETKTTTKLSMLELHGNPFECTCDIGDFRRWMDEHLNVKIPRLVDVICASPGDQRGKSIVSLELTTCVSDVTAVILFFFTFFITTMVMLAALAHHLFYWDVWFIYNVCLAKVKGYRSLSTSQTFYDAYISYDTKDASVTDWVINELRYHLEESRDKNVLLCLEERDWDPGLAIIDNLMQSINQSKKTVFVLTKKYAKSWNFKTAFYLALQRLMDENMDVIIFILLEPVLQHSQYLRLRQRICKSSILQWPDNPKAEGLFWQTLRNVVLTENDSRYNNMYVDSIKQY
- assay-remarks: TLR8 inhibition reporter assay (HEK-Blue cells, SEAP reporter, R848 stimulation)
- protocol-conditions: HEK-Blue cells overexpressing human TLR8, SEAP reporter, R848 15.9 μM
quantity-kind: IC50 (nM)

>>> measured_number("COc1cc(-c2[nH]c3ccc(C4CCCN(C5COC5)C4)cc3c2C(C)C)cn2ncnc12 (stereo not shown) [Example 243]")
16
>>> measured_number("COCCN1CC(c2ccc3[nH]c(-c4cc(C)c5ncnn5c4)c(C(C)C)c3c2)OCC1(C)C (stereo not shown) [Example 382]")
3.4
>>> measured_number("COc1ccc(-c2[nH]c3ccc(C4CCC(O)CC4)cc3c2C(C)C)cc1OC (stereo not shown) [Example 451]")
238
>>> measured_number("COc1cc(-c2[nH]c3ccc(C4CC5CN(CC(=O)N(C)C)CC5C4)cc3c2C(C)C)cn2ncnc12 (stereo not shown)")
2.4
>>> measured_number("Cc1cc(-c2[nH]c3ccc(C4CN(CC(=O)N(C)C)CCO4)cc3c2C(C)C)cc(C)n1 (stereo not shown) [Example 322]")
86
>>> measured_number("Cc1cc(-c2[nH]c3ccc(C4CN(C(=O)CN(C)C)CCO4)cc3c2C(C)C)cc(C)n1 (stereo not shown) [Example 336]")
10
>>> measured_number("Cc1cc(-c2[nH]c3ccc([C@H]4C[C@H]4C(=O)NC4CCC5CNCC54)cc3c2C(C)C)ccn1 (stereo partly shown) [Example 457]")
50
>>> measured_number("Cc1cc(-c2[nH]c3ccc(C4CN(C5COC5)C4)cc3c2C(C)C)cn2ncnc12")
22

A. CNCC(=O)N1CC(c2ccc3[nH]c(-c4cc(OC)c5ncnn5c4)c(C(C)C)c3c2)C1
B. CNC(=O)CN1CCOC(c2ccc3[nH]c(-c4cc(C)nc(C)c4)c(C(C)C)c3c2)C1 (stereo not shown) [Example 325]
C. COc1cc(-c2[nH]c3ccc(C4CN(C)CCO4)cc3c2C(C)C)cn2ncnc12 (stereo not shown) [Example 301]
Order the items by recorded IC50; the first position goes to the largest value. Record the ranking as a list of labels in the requested order.
B, A, C
(B: 21 nM, A: 5.9 nM, C: 0.56 nM)
